- System: HeLa Kyoto;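 also: HeLa Kyoto cells synchronized by double thymidine or nocodazole block, proteins quantified by TMT10plex mass spectrometry, three independent biological replicates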
- run.description: melting temperature (median over replicates), in situ; higher = more thermally stable
- condition.notes: cell cycle stage: G1/S
quantity.measured: melting temperature (°C)
Please give a number only; it is taken to be in °C.

- sequence.content: "MERASLIQKAKLAEQAERYEDMAAFMKGAVEKGEELSCEERNLLSVAYKNVVGGQRAAWRVLSSIEQKSNEEGSEEKGPEVREYREKVETELQGVCDTVLGLLDSHLIKEAGDAESRVFYLKMKGDYYRYLAEVATGDDKKRIIDSARSAYQEAMDISKKEMPPTNPIRLGLALNFSVFHYEIANSPEEAISLAKTTFDEAMADLHTLSEDSYKDSTLIMQLLRDNLTLWTADNAGEEGGEAPQEPQS [SFN]"
  test.target: "HeLa Kyoto"
  melting temperature (°C): 52.6
- sequence.content: "MWPPCGTLRTLALARSRGARACSGDGGVSYTQGQSPEPRTREYFYYVDHQGQLFLDDSKMKNFITCFKDPQFLVTFFSRLRPNRSGRYEAAFPFLSPCGRERNFLRCEDRPVVFTHLLTADHGPPRLSYCGGGEALAVPFEPARLLPLAANGRLYHPAPERAGGVGLVRSALAFELSACFEYGPGAPALPSHVRWQGRRLALTMDLAPLLLAARSP [C8ORF82]"
  test.target: "HeLa Kyoto"
  melting temperature (°C): 52.4
- sequence.content: "MSDEGSRGSRLPLALPPASQGCSSGGGGGGSSAGGSGNSRPPRNLQGLLQMAITAGSEEPDPPPEPMSEERRQWLQEAMSAAFRGQREEVEQMKSCLRVLSQPMPPTAGEAEQAADQQEREGALELLADLCENMDNAADFCQLSGMHLLVGRYLEAGAAGLRWRAAQLIGTCSQNVAAIQEQVLGLGALRKLLRLLDRDACDTVRVKALFAISCLVREQEAGLLQFLRLDGFSVLMRAMQQQVQKLKVKSAFLLQNLLVGHPEHKGTLCSMGMVQQLVALVRTEHSPFHEHVLGALCSLVTDFPQGVRECREPELGLEELLRHRCQLLQQHEEYQEELEFCEKLLQTCFSSPADDSMDR [HSPBP1]"
  test.target: "HeLa Kyoto"
  melting temperature (°C): 50.8

**Query** Tell me the measured melting temperature of MFSSVAHLARANPFNTPHLQLVHDGLGDLRSSSPGPTGQPRRPRNLAAAAVEEQYSCDYGSGRFFILCGLGGIISCGTTHTALVPLDLVKCRMQVDPQKYKGIFNGFSVTLKEDGVRGLAKGWAPTFLGYSMQGLCKFGFYEVFKVLYSNMLGEENTYLWRTSLYLAASASAEFFADIALAPMEAAKVRIQTQPGYANTLRDAAPKMYKEEGLKAFYKGVAPLWMRQIPYTMMKFACFERTVEALYKFVVPKPRSECSKPEQLVVTFVAGYIAGVFCAIVSHPADSVVSVLNKEKGSSASLVLKRLGFKGVWKGLFARIIMIGTLTALQWFIYDSVKVYFRLPRPPPPEMPESLKKKLGLTQ [SLC25A3] , please.
**Result** 56.3

**Query** Tell me the measured melting temperature of MMIHGFQSSHRDFCFGPWKLTASKTHIMKSADVEKLADELHMPSLPEMMFGDNVLRIQHGSGFGIEFNATDALRCVNNYQGMLKVACAEEWQESRTEGEHSKEVIKPYDWTYTTDYKGTLLGESLKLKVVPTTDHIDTEKLKAREQIKFFEEVLLFEDELHDHGVSSLSVKIRVMPSSFFLLLRFFLRIDGVLIRMNDTRLYHEADKTYMLREYTSRESKISSLMHVPPSLFTEPNEISQYLPIKEAVCEKLIFPERIDPNPADSQKSTQVE [TIPRL] , please.
**Result** 50.8
